This collection of values is drawn from ChEMBL document CHEMBL4118085.

Target: Plasma kallikrein (Homo sapiens, UniProt P03952)
Sequence (P03952 20-390 limits assumed): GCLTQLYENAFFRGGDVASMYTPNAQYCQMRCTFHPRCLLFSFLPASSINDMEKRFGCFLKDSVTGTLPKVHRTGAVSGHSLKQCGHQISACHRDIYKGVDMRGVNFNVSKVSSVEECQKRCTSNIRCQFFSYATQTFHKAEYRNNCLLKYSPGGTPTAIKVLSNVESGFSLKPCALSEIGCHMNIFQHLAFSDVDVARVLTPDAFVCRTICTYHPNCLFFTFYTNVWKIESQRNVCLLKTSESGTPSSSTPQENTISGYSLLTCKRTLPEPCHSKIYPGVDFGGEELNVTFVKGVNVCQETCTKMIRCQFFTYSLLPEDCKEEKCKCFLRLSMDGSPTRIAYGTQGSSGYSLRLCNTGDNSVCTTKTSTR
Sequence (P03952 391-638 limits assumed): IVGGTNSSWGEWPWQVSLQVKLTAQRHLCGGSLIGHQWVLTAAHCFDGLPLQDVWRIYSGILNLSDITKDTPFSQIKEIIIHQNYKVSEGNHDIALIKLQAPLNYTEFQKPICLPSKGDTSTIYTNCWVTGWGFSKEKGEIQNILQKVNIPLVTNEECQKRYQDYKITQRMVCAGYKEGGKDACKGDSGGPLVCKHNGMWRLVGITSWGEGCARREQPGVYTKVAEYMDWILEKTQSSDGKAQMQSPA
Assay: Inhibition of human plasma kallikrein using H-Pro-Phe-Arg-AMC as substrate after 1 hr by fluorescence assay
pIC50: −log10 of the molar value.
// -1 strictly below 8 in pIC50; 1 otherwise

# count of solved cases: 3
1. Cc1cnn(Cc2ccc(Cn3nc(C(=O)N[C@@H]4CCc5c4ccnc5N)cc3C(F)(F)F)cc2)c1	1
2. Cc1ccc2cc(Cn3cc(C(=O)N[C@H]4CCc5nc(N)ccc54)nn3)ccc2n1	-1
3. C[C@H]1CCN(c2ccc(Cn3cc(C(=O)N[C@@H]4CCc5nc(N)ccc54)cn3)cn2)C1	-1

Now look at this one.
Say whether Cc1cc(N)nc2c1C(NC(=O)c1cnn(Cc3ccc(Cn4ccccc4=O)cc3)c1)CC2 (stereo not given) shows pIC50 of 8 or more.
1
